This collection of values is drawn from the supplement of paper PMC6755084.

B1: F1*; the commonest letter at each place (parent)
chain: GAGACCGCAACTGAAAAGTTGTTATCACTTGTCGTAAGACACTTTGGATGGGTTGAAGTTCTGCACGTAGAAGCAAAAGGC

Variants of: B1
Test: fraction ligated after 30 min (ligated reads / total reads); higher = more ligase activity
Conditions: with F1*sub RNA substrate (template-directed ligation), 42 °C
Classify as follows. Reported fraction ligated greater than or equal to 0.8: Met. Reported fraction ligated below: Not met.

GAGACCGCAACTGAAAAGTTGTTATCACTTGTTGTAAGACAGTTTGGATGGGTTGAAGTTCTGCACGTAGAAGCAAAAGGC    Met

hey, is fraction ligated for this one >= 0.8? GAGACCGCAACTGAAAAGTTGTTATCACTTGTCGTAATACACTTGGGATGGGTTGAAGTTCTGCACGTAGAAGCAAAAGGC
Not met

hey, is fraction ligated for this one >= 0.8? GAGACCGCAACTGAAAAGTTGTTATCACTTCTCGTACGACACTTTGGATGGGTTGAAGTTCTGCACGTAGAAGCAAAAGGC
Not met

hey, is fraction ligated for this one >= 0.8? GAGACCGCAACTGAAAAGTTGTTAACAATTGTCGTAAGACACTTTGGATGGGTTGAAGTTCTGCACGTAGAAGCAAAAGGC
Not met

hey, is fraction ligated for this one >= 0.8? GAGACCGCAACTGAAAAGTTGTTATCACTTGTCGGAAAACACTTTGGATGGGTTGAAGTTCTGCACGTAGAAGCAAAAGGC
Met

hey, is fraction ligated for this one >= 0.8? GAGACCGCAACTGAAAAGTTGTTATCACTTGTCTTAAGACACTTTGGGTGGGTTGAAGTTCTGCACGTAGAAGCAAAAGGC
Not met

hey, is fraction ligated for this one >= 0.8? GAGACCGCAACTGAAAAGTTGTTATCACTTGTCGTAAGACACATTGGAAGGGTTGAAGTTCTGCACGTAGAAGCAAAAGGC
Not met

hey, is fraction ligated for this one >= 0.8? GAGACCGCAACTGAAAAGTTGTTATCACTTGCCGTAAGACACTTTAGATGGGTTGAAGTTCTGCACGTAGAAGCAAAAGGC
Not met

hey, is fraction ligated for this one >= 0.8? GAGACCGCAACTGAAAAGTTGTGATCACTCGTCGTAAGACACTTTGGATGGGTTGAAGTTCTGCACGTAGAAGCAAAAGGC
Not met

hey, is fraction ligated for this one >= 0.8? GAGACCGCAACTGAAAAGTTGTTATCACATGTCGTAAGAGACTTTGGATGGGTTGAAGTTCTGCACGTAGAAGCAAAAGGC
Met

hey, is fraction ligated for this one >= 0.8? GAGACCGCAACTGAAAAGTTGTTTTCACTTGTAGTAAGACACTTTGGATGGGTTGAAGTTCTGCACGTAGAAGCAAAAGGC
Not met

hey, is fraction ligated for this one >= 0.8? GAGACCGCAACTGAAAAGTTGTTATCACTTGTCGTAAGACACTTTCGGTGGGTTGAAGTTCTGCACGTAGAAGCAAAAGGC
Not met

hey, is fraction ligated for this one >= 0.8? GAGACCGCAACTGAAAAGTTGTTATCACTTGTAGTAATACACTTTGGATGGGTTGAAGTTCTGCACGTAGAAGCAAAAGGC
Met

hey, is fraction ligated for this one >= 0.8? GAGACCGCAACTGAAAAGTTGTTATCACTTGTCTTAAGACACTTTGGATAGGTTGAAGTTCTGCACGTAGAAGCAAAAGGC
Not met
